Test: Selectivity index, ratio of EC50 for cytotoxicity against human IMR90 cells to EC50 for antitrypanosomal activity against Trypanosoma brucei 90-13 bloodstream forms
Assay type: toxicity, cell-based
Conditions: read-out: Ratio EC50
Quick reference: selectivity ratio of the listed items.

| Chemical smiles | selectivity ratio |
| --- | --- |
| CC1(C)CCN(S(=O)(=O)c2cccc(NC(=O)c3ccco3)c2)CC1 | > 5 |
| O=C(Nc1ccc(S(=O)(=O)N2CCC(Cl)CC2)cc1)c1ccc([N+](=O)[O-])o1 | > 313 |
| O=C(Nc1ccc(S(=O)(=O)C2=CCOC=C2)cc1)c1ccc([N+](=O)[O-])o1 | > 47 |
| O=C(Nc1ccc(S(=O)(=O)c2ccccc2)cc1)c1ccc([N+](=O)[O-])o1 | > 227 |
| CC1CCN(S(=O)(=O)c2ccc(NC(=O)c3ccc([N+](=O)[O-])o3)cc2)CC1 | > 208 |
| O=C(Nc1ccc(S(=O)(=O)N2CCC(O)CC2)cc1)c1ccc([N+](=O)[O-])o1 | > 81 |

====

Quick reference: selectivity ratio of the listed items.
Assay: Selectivity index, ratio of EC50 for cytotoxicity against human IMR90 cells to EC50 for antitrypanosomal activity against Trypanosoma brucei 90-13 bloodstream forms
Assay type: toxicity, cell-based
Conditions: read-out: Ratio EC50
Measured quantity: selectivity ratio

| Chemical smiles | Measured quantity | Meas value |
| --- | --- | --- |
| O=C(Nc1ccc(S(=O)(=O)C2CCCCC2)cc1)c1ccc([N+](=O)[O-])o1 | selectivity ratio | > 51 |
| CC1(C)CCN(S(=O)(=O)c2cccc(NC(=O)c3ccc([N+](=O)[O-])s3)c2)CC1 | selectivity ratio | > 556 |
| CC(C)(C)C1CCN(S(=O)(=O)c2ccc(NC(=O)c3ccc([N+](=O)[O-])o3)cc2)CC1 | selectivity ratio | > 833 |
| O=C(Nc1ccc(S(=O)(=O)N2CCC3(CCCCC3)CC2)cc1)c1ccc([N+](=O)[O-])s1 | selectivity ratio | > 1250 |
| CC1(C)CCN(S(=O)(=O)c2ccc(NC(=O)c3ccc(C(F)(F)F)o3)cc2)CC1 | selectivity ratio | > 3 |
| CC(C)(C)C1CCN(S(=O)(=O)c2ccc(NC(=O)c3ccc([N+](=O)[O-])s3)cc2)CC1 | selectivity ratio | > 833 |
| CC1(C)CCN(S(=O)(=O)c2ccc(NC(=O)c3cccc([N+](=O)[O-])c3)cc2)CC1 | selectivity ratio | > 4 |
| O=C(Nc1ccc(S(=O)(=O)N2CCOCC2)cc1)c1ccc([N+](=O)[O-])o1 | selectivity ratio | > 54 |
| N=C1CCN(S(=O)(=O)c2ccc(NC(=O)c3ccc([N+](=O)[O-])o3)cc2)CC1 | selectivity ratio | > 34 |

====

Test: Selectivity index, ratio of EC50 for cytotoxicity against human IMR90 cells to EC50 for anti-parasitic activity against Leishmania amazonensis promastigotes
Type: toxicity, cell-based
Details: read-out: Ratio EC50

| Chemical smiles | selectivity ratio |
| --- | --- |
| CC1(C)CCN(S(=O)(=O)c2cccc(NC(=O)c3ccc([N+](=O)[O-])s3)c2)CC1 | > 19 |
| CC1(C)CCN(S(=O)(=O)c2cccc(NC(=O)c3ccc([N+](=O)[O-])o3)c2)CC1 | > 250 |
| CC1(C)CCN(S(=O)(=O)c2cccc(NC(=O)c3ccco3)c2)CC1 | > 21 |
| CC1(C)CCN(S(=O)(=O)c2ccc(NC(=O)c3ccc(C(F)(F)F)o3)cc2)CC1 | > 2 |
| CC1(C)CCN(S(=O)(=O)c2ccc(NC(=O)c3ccc([N+](=O)[O-])s3)cc2)CC1 | > 250 |
| O=C(Nc1ccc(S(=O)(=O)c2ccccc2)cc1)c1ccc([N+](=O)[O-])o1 | > 6 |
| CC1(C)CCN(S(=O)(=O)c2ccc(NC(=O)c3cccc([N+](=O)[O-])c3)cc2)CC1 | > 2 |
| O=C(Nc1ccc(S(=O)(=O)C2CCCCC2)cc1)c1ccc([N+](=O)[O-])o1 | > 16 |
| CC1CCN(S(=O)(=O)c2ccc(NC(=O)c3ccc([N+](=O)[O-])o3)cc2)CC1 | > 3 |
